Read-out: DNA damage-inducible transcript 3 (DDIT3), DDIT3 (gene 1649)
Assay: LTEA_HepaRG_DDIT3: Life Technologies and Expression Analysis (LTEA) Assay for DNA damage-inducible transcript 3 (DDIT3) using HepaRG (AID 2283488)
Details: mRNA level, 48 h; actives raise or lower the signal
The source made the active and inactive calls. How the source made its calls: active means hit-call score of the fitted dose curve at least 0.9, where 1 is the maximum; inactive means score below 0.9.
Property Name: AC50

Consider the worked cases shown below.
CCCCCCCCCCCCCCCCCC(=O)O
inactive
CCCCN(CCCC)CCCC
inactive
COCCOCCOC
1.38 µM (active)
OC[C@@H](O)[C@@H](O)[C@H](O)[C@H](O)CO
inactive

-- ask Please look up its AC50: "COc1cc(C=O)ccc1O"
-- reply inactive

-- ask Request: "Nc1ccc(S(=O)(=O)c2ccc(N)cc2)cc1"
-- reply inactive

-- ask Then what about the molecule "Oc1ccc2c(c1)OC[C@@H](N1CCC(O)(c3ccc(F)cc3)CC1)[C@H]2O" ?
-- reply inactive

-- ask Now the same for "CNC(=O)[C@H]1O[C@@H](n2cnc3c(NCc4cc(Cl)ccc4OCc4cc(C)no4)ncnc32)[C@H](O)[C@@H]1N"
-- reply inactive

-- ask Could you do the same for "CCCCc1ccc2c(n1)[C@@H](c1ccc(OC)cc1C[C@H](C)C(=O)O)[C@H](C(=O)O)[C@H]2c1ccc2c(c1)OCO2" , please?
-- reply inactive

-- ask Entry "NCC1(Cc2noc(=O)[nH]2)CCCCC1" please
-- reply inactive

-- ask Would you kindly repeat that for "CCCCCC(=O)O" ?
-- reply inactive

-- ask Please do the same for "Cc1cc(NC(=O)C(=O)O)cc(C)c1Oc1ccc(O)c2c1CCC2" as well.
-- reply inactive
